Consider the following compounds; for each one, report its melting point.

For reference, reported melting point for O=[N+]([O-])c1ccc(CSc2ncnc3nc[nH]c23)cc1 stands at 239 °C

For reference, reported melting point for COC(=O)CCN(CC(=O)O)CC(=O)O stands at 141 °C

For reference, reported melting point for Cc1csc(C(=O)OC(C)C)c1S(N)(=O)=O stands at 76 °C

For reference, reported melting point for Oc1ccc(C(c2ccc(O)cc2)n2cncn2)cc1 stands at 230 °C

For reference, reported melting point for O=C(NOCC(=O)N1CCCC1C(=O)O)NN1CCCC1C(=O)O (stereo not given) stands at 157 to 160 °C

For reference, reported melting point for Clc1cccc(Nc2nccc(-c3ccnc(Cl)c3)n2)c1 stands at 144 to 147 °C

For reference, reported melting point for CC(C)(C)c1ccccc1N1CCN(C(=O)C2CCC(=O)N2)CC1 (stereo not given) stands at 290 °C

For reference, reported melting point for COC(=O)C(Oc1cc(-n2c(=O)cc(C(F)(F)F)n(C)c2=O)c(F)cc1Cl)C(=O)OC stands at 141 °C

For reference, reported melting point for O=P(O)(O)CCCCCCCCCCCC(F)(F)C(F)(F)C(F)(F)C(F)(F)F stands at 93 to 96 °C

For reference, reported melting point for CCc1cccc(C)c1CNc1nc(OC)cc(NC)c1[N+](=O)[O-] stands at 166 to 167 °C

For reference, reported melting point for CCOC(=O)N1CCN(c2ccc(-n3cn[nH]c3=O)cn2)CC1 stands at 221 °C

For reference, reported melting point for CCn1c(=O)c2c(nc(/C=C/c3cccc(OC(=O)c4ccccc4)c3)n2C)n(CC)c1=O stands at 223 to 224 °C

For reference, reported melting point for CCCCCCNC(=O)Nc1cccc(Oc2ccc3nc(COc4ccc(CC5SC(=O)NC5=O)cc4)n(C)c3c2)c1 (stereo not given) stands at 144 to 147 °C

For reference, reported melting point for COc1cccc(S(=O)(=O)N(C)C)c1C#N stands at 121 to 128 °C

For reference, reported melting point for COCCNC(=O)c1cc(-c2ccccc2)c(=O)n2ccc3ccsc3c12 stands at 201 to 202 °C

====

Parameter: melting point

For reference, reported melting point for CNCC(O)c1ccc(CO)cc1 (centres undefined) stands at 80 to 81 °C

For reference, reported melting point for CC(C)C(=O)N1N=Cc2ccccc2C1C#N (centres undefined) stands at 144 to 146 °C

For reference, reported melting point for O=C(Nc1ccc(-n2nc(C(F)(F)F)cc2C2CC2)c(F)c1)c1cccc(F)c1F stands at 132 to 135 °C

For reference, reported melting point for CN1CCC(c2nn(-c3cccc(C(F)(F)F)c3)c3ccccc23)CC1 stands at 103 to 105 °C

For reference, reported melting point for [N-]=[N+]=NC1CC(n2cc(C=CBr)c(=O)[nH]c2=O)OC1CCl (centres undefined) stands at 124 to 125 °C

For reference, reported melting point for C[C@H]([C@H](O)c1ccc2c(c1)OC(c1ccccc1)(c1ccccc1)O2)N1CCC(O)(c2ccccc2)CC1 (relative stereo) stands at 224 °C

For reference, reported melting point for Cc1ccc(-c2nc(SCc3ccccn3)n[nH]2)c(C)c1 stands at 112 to 114 °C

For reference, reported melting point for NC(=O)c1sc2ncnc(-c3cccc(NC(=O)Nc4ccccc4C(F)(F)F)c3)c2c1N stands at 172 to 175 °C

For reference, reported melting point for CC1CC2C3CC(Cl)C4=CC(=O)C=CC4(C)C3C(O)CC2(C)C1C(=O)COC(=O)C(C)(C)C (centres undefined) stands at 189 °C

For reference, reported melting point for NC(=O)c1cccc(-c2nc(=O)c3ccccc3s2)n1 stands at 295 °C

For reference, reported melting point for CS(=O)(=O)c1ccc(N2CC(O)(C(F)(F)F)N=C2c2ccncc2)cc1 (centres undefined) stands at 219 °C

For reference, reported melting point for C=CCC(=O)NCC(CO)c1cccc2ccc(OC)cc12 (centres undefined) stands at 86 to 88 °C

For reference, reported melting point for COC(=O)c1cc2cc(OC)ccc2[nH]1 stands at 178 to 181 °C

For reference, reported melting point for CC(C)(C)OC(=O)N1CCC(c2nc3cc(-c4ccc(S(C)(=O)=O)cc4F)cc(F)c3o2)CC1 stands at 155 to 158 °C

For reference, reported melting point for O=Cc1ccc(F)c(OCc2ccccc2)c1 stands at 68 to 69 °C

For reference, reported melting point for Cc1cc2c(s1)c(=O)c(C(=O)O)cn2C stands at 305 to 315 °C

For reference, reported melting point for CCCCN(Cc1ccccc1)C(=O)Nc1ccc(C)cc1C stands at 70 to 71 °C

For reference, reported melting point for O=C(CCN1C(=O)c2ccccc2C1=O)c1ccccc1C(=O)c1ccc(Cl)cc1Cl stands at 133 to 134 °C

For reference, reported melting point for COc1cc2[nH]c(N(C)Cc3cccc(N4CCCC4=O)c3)nc(=O)c2c(OC)c1OC stands at 166 °C

For reference, reported melting point for Cc1c(C)c2c(c(C)c1N)CC(C)(CSCCO)O2 (centres undefined) stands at 108 to 109 °C

For reference, reported melting point for C=CCc1cc(OCC)c2c(c1OC)S(=O)(=O)N(Cc1ccccc1)C2=O stands at 92 to 94 °C

For reference, reported melting point for CC(C)(C)OC(=O)NCc1ccc2cc(C(N)=O)[nH]c2c1 stands at 209 to 210 °C

For reference, reported melting point for O=[N+]([O-])c1ccc(CCC2CCN(c3cc(Cl)nnc3Cl)CC2)cc1 stands at 162 to 164 °C

For reference, reported melting point for N#CCCNC(=O)c1cccc(-c2ccc3c(n2)C(Oc2ccc(Cl)cc2Cl)CC3)c1 (centres undefined) stands at 193 to 194 °C

For reference, reported melting point for CC1=C(C(=O)OCOC(=O)C(C)(C)C)C(C)C(C(=O)OCOC(=O)C(C)(C)C)=C(C)N1 stands at 82 to 83 °C

For reference, reported melting point for Cc1cc(CCCCOCCCCCCNCc2c(CO)ccc(O)c2CO)cc(C)c1N stands at 66 to 68 °C

For reference, reported melting point for Nc1nc2c(s1)CCN(C/C=C\c1cccc3c1CC(=O)N3)CC2 stands at 192 to 195 °C

For reference, reported melting point for CC(C)(CNC(=O)Cc1cnc[nH]1)c1ccc(C(=O)Nc2cn3cc(C(F)(F)F)ccc3n2)cc1 stands at 261 to 263 °C

For reference, reported melting point for C#CCc1c(C)nc2c(OCc3c(C)cccc3NC(=O)OC)cccn12 stands at 179 to 180 °C

====

Consider the following compounds; for each one, report its melting point.

For reference, reported melting point for CC(C)(C)C(=O)OCOC(=O)COc1ccc(Cc2ccc(Cl)cc2)cc1 stands at 54 to 55 °C

For reference, reported melting point for Cc1ccc(NC(=O)NCc2ccc3c(c2)CN(C2CCC(=O)NC2=O)C3=O)cc1 (stereo unspecified) stands at 267 to 269 °C

For reference, reported melting point for COC=NC(C#N)=C(N)C#N stands at 138 to 139 °C

For reference, reported melting point for CC(C(=O)O)c1ccc(-c2ccc(OCc3nc4ccccc4s3)cc2)cc1 (stereo unspecified) stands at 199 to 200 °C

For reference, reported melting point for CC(C)Cc1nn(C)c(=O)c2cc(Cc3ccccc3)sc12 stands at 97 to 98 °C

For reference, reported melting point for COC(=O)C(C)(Cc1ccc(OCCc2nc(-c3ccccc3)oc2C)cc1)C(=O)OC stands at 75.1 to 76 °C

For reference, reported melting point for COc1ccsc1C(=O)C=C(C)C stands at 49 to 51 °C

For reference, reported melting point for CCCCCCCCCCCCCCCCOCC(CO)OC (stereo unspecified) stands at 56 °C

For reference, reported melting point for CCOC(=O)c1ccc(N2CCC(NC[C@H](O)COc3ccc(O)c(S(=O)(=O)NC)c3)CC2)cc1 stands at 87 °C

For reference, reported melting point for C=CCOc1ccc(-c2cccc(C#N)c2)cc1 stands at 80 to 90 °C

For reference, reported melting point for Nc1cnc(-c2ccc(OCc3ccccc3)c(C34CC5CC(CC(C5)C3)C4)c2)nc1 stands at 216 to 219 °C

For reference, reported melting point for O=C1c2cccc([N+](=O)[O-])c2C(=O)N1c1ccc(OC(F)(F)F)cc1 stands at 149 to 150 °C

For reference, reported melting point for Cc1cc(N(C)Cc2oc(-c3ccc(C(F)(F)F)cc3)nc2C)cc(C)c1OCC(=O)O stands at 122 to 123 °C

For reference, reported melting point for C=C(C(=O)OC)[C@@H](O)c1ccccc1 stands at 48 °C

For reference, reported melting point for CCOC(=O)c1nc2scc(CN(C)Cc3ccccc3)c2c(=O)[nH]1 stands at 129 °C

For reference, reported melting point for COc1cc(CC2COC(c3ccc(O)c(OC)c3)C2CO)ccc1O (stereo unspecified) stands at 169 to 171 °C
